- assay.name: chemical genetic growth profiling, strain panel (AID 1159580);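 note: tested at 20 µM; growth read once vehicle control cultures reached saturation at 30 °C; 1 = growth at the plate median or of vehicle wells; lower values mean less growth of the strain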
- test.settings: S. cerevisiae deletion strains, growth OD, locus YLR221C, strain rsa3
Out of some 5,500 compounds screened, about 2,000 (36%) were called active. Another 18% or so got no clear call; they are omitted. Cut-off read from the data, not from the text of the source: active = normalized growth mostly below about 0.91 (no sharp cut-off); inconclusive = no clear call, values can overlap the other calls; inactive = mostly above about 0.92. Some of the results follow.
Labels: Y = active, N = inactive

# molecule, category.label
rows = [
    ("COc1ccccc1OCC(O)CN1CCN(CC(=O)Nc2c(C)cccc2C)CC1 (stereo unspecified)", "N"),
    ("c1cc2c(cc1[C@H]1OC[C@H]3[C@@H]1CO[C@H]3c1ccc3c(c1)OCO3)OCO2", "Y"),
    ("CC12CCC(CC1)C(C)(C)O2", "N"),
    ("C=CCN1CC[C@]23c4c5ccc(O)c4OC2C(=O)CC[C@@]3(O)[C@H]1C5 (stereo partly specified)", "N"),
    ("CN1CCc2cccc3c2C1Cc1ccc(O)c(O)c1-3 (stereo unspecified)", "N"),
    ("NC(=O)c1ccc(N)nc1", "N"),
]

---

- assay.name: chemical genetic growth profiling, strain panel (AID 1159580)
- test.settings: S. cerevisiae deletion strains, growth OD, locus YML070W, strain DAK1, stronger effect = lower value
Screen size: about 5,500 compounds; about 2,000 (36%) were called active. Inconclusive results (about 18%) are left out. This is one part of the list.
normalized growth: recorded values

# compound, normalized growth
rows = [
    ("O=C1/C(=C/c2c(F)cccc2Cl)Cc2ccccc21", 0.929),
    ("OC(c1ccc(C(F)(F)F)cc1)c1cccc(C(F)(F)F)c1 (centres undefined)", 0.96),
    ("CC12CC[C@@H](O)CC1=CC[C@@H]1C2CCC2(C)C(=O)CC[C@@H]12 (some centres undefined)", 0.903),
    ("COc1cc(C(=O)Oc2c(Cl)cc(Cl)cc2C=Nc2cccc([N+](=O)[O-])c2)cc(OC)c1OC", 0.642),
    ("C/C(=N/OC(=O)Nc1ccc(Cl)cc1)c1ccc2c(c1)CCO2", 0.874),
    ("COc1ccccc1C(C[N+](=O)[O-])c1c(N)n(C)c(=O)n(C)c1=O (centres undefined)", 0.527),
    ("NC(=NC(=O)c1ccc(Cl)cc1)c1cccs1", 0.774),
    ("Cc1onc(-c2ccccc2Cl)c1-c1nc2ccccc2c(=O)o1", 0.956),
    ("O=C(CCSc1cccs1)Nc1cccc(C(F)(F)F)c1", 0.891),
]

---

- assay.name: chemical genetic growth profiling, strain panel (AID 1159580)
- test.settings: S. cerevisiae deletion strains, growth OD, locus YGR078C, strain PAC10, stronger effect = lower value
Among all 5,500 compounds or so, about 2,000 (36%) were called active. Inconclusive results (about 18%) are left out. Some of the results follow.
// values below are reported normalized growth
quantity: normalized growth

# compound, quantity, measured.value
measured = [
    ("COc1cc(C(=O)O)c(O)c2c1OCO2", "normalized growth", 1.03),
    ("CCOP(=S)(OCC)SCCSCC", "normalized growth", 0.965),
    ("CCCNC(C)C(=O)Nc1ccccc1C (configuration not stated)", "normalized growth", 1),
    ("CCOP(=S)(OCC)SCSP(=S)(OCC)OCC", "normalized growth", 0.969),
    ("CCOP(=S)(OCC)SCSCC", "normalized growth", 0.99),
    ("CN(C)CCCO[C@@H]1[C@H]2OC(C)(C)O[C@H]2O[C@@H]1C(O)CO (some centres not stated)", "normalized growth", 1.01),
    ("Nc1nc2ncc(CNc3ccc(C(=O)N[C@@H](CCC(=O)O)C(=O)O)cc3)nc2c(=O)[nH]1", "normalized growth", 1.03),
    ("CN(C)CCCO[C@H]1[C@@H](C(O)CO)OC2OC(C)(C)O[C@@H]21 (some centres not stated)", "normalized growth", 0.907),
    ("C#C[C@]1(O)CCC2C3CCc4cc(O)ccc4C3CC[C@@]21C (some centres not stated)", "normalized growth", 0.877),
    ("O=C(O)CC(CC(=O)O)c1ccc(C(F)(F)F)cc1", "normalized growth", 0.993),
    ("COP(=S)(OC)Oc1ccc(SC)c(C)c1", "normalized growth", 0.999),
    ("COC(=O)c1ccc(C#Cc2ccccc2)o1", "normalized growth", 0.89),
]

---

- assay.name: chemical genetic growth profiling, strain panel (AID 1159580)
- test.settings: S. cerevisiae deletion strains, growth OD, locus YBL105C, strain PKC1, stronger effect = lower value
In all, about 5,500 compounds went through this assay and about 2,000 (36%) were called active. Another 18% or so got no clear call; they are omitted. The list shows a part of the results.
We begin with a simple list: items and their reported normalized growth.
quantity: normalized growth

# compound, quantity, measured.value
measured = [
    ("CC(=O)C(Sc1nc2ccccc2s1)C(C)=O", "normalized growth", "0.919 (inactive)"),
    ("O=C(Nc1ccc(Cl)cc1Cl)c1cnccc1C(F)(F)F", "normalized growth", "0.976 (inactive)"),
    ("Nc1cc(-c2ccc(OC(F)(F)F)cc2)nn1-c1ccc(Cl)c(Cl)c1", "normalized growth", "1.01 (inactive)"),
    ("COc1ccccc1NC(=O)Nc1nn(C)c2cccc(OC)c12", "normalized growth", "0.918 (inactive)"),
    ("COc1ccccc1C(C[N+](=O)[O-])c1c(N)n(C)c(=O)n(C)c1=O (stereo unspecified)", "normalized growth", "0.955 (inactive)"),
    ("O=C(CCSc1cccs1)Nc1cccc(C(F)(F)F)c1", "normalized growth", "0.922 (inactive)"),
]

---

- assay.name: chemical genetic growth profiling, strain panel (AID 1159580);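 note: tested at 20 µM; growth read once vehicle control cultures reached saturation at 30 °C; 1 = growth at the plate median or of vehicle wells; lower values mean less growth of the strain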
- test.settings: S. cerevisiae deletion strains, growth OD, locus YMR231W, strain pep5
The whole screen tested about 5,500 compounds, of which about 2,000 (36%) were called active. Roughly 18% stayed inconclusive and do not appear here. Cut-off read from the data, not from the text of the source: active = normalized growth mostly below about 0.91 (no sharp cut-off); inconclusive = no clear call, values can overlap the other calls; inactive = mostly above about 0.92. The list shows a part of the results.
Possible outcomes: YES for active, NO for inactive

# compound, category.label
rows = [
    ("CCOC(N)=O", "NO"),
    ("CCN(CC)CCOC(=O)C(Cc1cccc2ccccc12)CC1CCCO1 (configuration not stated)", "NO"),
    ("O=C(O)c1ccc2c(c1)OCO2", "NO"),
    ("C[C@@H]1CC2C3CCC4=CC(=O)C=C[C@]4(C)[C@@]3(F)[C@@H](O)C[C@]2(C)[C@@]1(O)C(=O)COP(=O)(O)O (some centres not stated)", "NO"),
    ("c1cc2c(cc1[C@H]1OC[C@H]3[C@@H]1CO[C@H]3c1ccc3c(c1)OCO3)OCO2", "NO"),
    ("NCCCCN=C(N)N", "NO"),
    ("c1ccc(-c2ccc(C(c3ccccc3)n3ccnc3)cc2)cc1 (configuration not stated)", "YES"),
]

---

Form field: normalized growth (one value per entry).
- assay.name: chemical genetic growth profiling, strain panel (AID 1159580);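 note: tested at 20 µM; growth read once vehicle control cultures reached saturation at 30 °C; 1 = growth at the plate median or of vehicle wells; lower values mean less growth of the strain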
- test.settings: S. cerevisiae deletion strains, growth OD, locus YHR013C, strain ard1, stronger effect = lower value
Among all 5,500 compounds or so, about 2,000 (36%) were called active. Another 18% or so got no clear call; they are omitted. Some of the results follow.

# molecule, normalized growth
data = [
    ("O=C(O)c1cc(=O)c2c(OCC(O)COc3cccc4oc(C(=O)O)cc(=O)c34)cccc2o1", 0.979),
    ("O=c1cccc2n1C[C@H]1CNCC2C1", 0.98),
    ("NC(=O)c1ccc(N)nc1", 0.979),
    ("NC(=O)c1cc[n+](CC2=C(C(=O)O)N3C(=O)C(NC(=O)C(c4ccccc4)S(=O)(=O)[O-])C3SC2)cc1 (stereo not given)", 1),
    ("C[C@@H]1C[C@@H]([C@H](O)CC2CC(=O)NC(=O)C2)C(=O)[C@@H](C)C1", 0.0947),
]

---

- assay.name: chemical genetic growth profiling, strain panel (AID 1159580);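 note: tested at 20 µM; growth read once vehicle control cultures reached saturation at 30 °C; 1 = growth at the plate median or of vehicle wells; lower values mean less growth of the strain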
- test.settings: S. cerevisiae deletion strains, growth OD, locus YMR205C, strain PFK2, stronger effect = lower value
The whole screen tested about 5,500 compounds, of which about 2,000 (36%) were called active. Inconclusive results (about 18%) are left out. Some of the results follow.
Below, each entry is listed with its recorded normalized growth.

# compound, normalized growth
rows = [
    ("COc1ccc(C[C@H](N)C(=O)N[C@@H]2[C@@H](CO)OC(n3cnc4c(N(C)C)ncnc43)[C@@H]2O)cc1 (stereo partly specified)", 1),
    ("NCc1ccc(S(N)(=O)=O)cc1", 1.05),
    ("CCOC(=O)C1=C[C@]2(CC)CCCN3CCc4c(n1c1ccccc41)[C@@H]32", 0.995),
    ("CC[C@]12CCCN3CCc4c(n(c5ccccc45)[C@](O)(C(=O)OC)C1)[C@@H]32", 0.97),
    ("O=C(O)CCCCC1SCC2NC(=O)NC21 (stereo unspecified)", 1),
    ("O=C1CN(/N=C\\c2ccc([N+](=O)[O-])o2)C(=O)N1", 0.993),
    ("C[C@H](COc1ccccc1)N[C@H](C)[C@H](O)c1ccc(O)cc1", 0.974),
    ("O=C1OCCN1/N=C\\c1ccc([N+](=O)[O-])o1", 1.02),
    ("OC1CCCCC1N1CCC(c2ccccc2)CC1 (stereo unspecified)", 0.953),
    ("CCCNC(C)C(=O)Nc1ccccc1C (stereo unspecified)", 1),
    ("CCOC(=O)CCCCCCCCCCCCC1C=CCC1 (stereo unspecified)", 0.864),
]
